- Study Target: recombinant full-length human prolyl endopeptidase (PREP) (Homo sapiens, UniProt P48147)
- Construct: To recombinant full-length human prolyl endopeptidase (PREP, R&D-Systems, 4308-SE)
- Protocol Description: Biochemical human prolyl endopeptidase (PREP) assay with fluorescently labelled substrate
- Reported Conditions: substrate Z-Gly-Pro-AMC 50 μM, 32° C., 60 min; some as mean values from multiple independent determinations
pIC50: −log10 of the molar value.
Measured Quantity: pIC50

                                   molecule                              study_target  measured_quantity  number
0  CC1Cc2nn(Cc3ccc(F)c(Cl)c3)c(=O)n2C(C(=O)N2CCC(F)(F)C2)C1 (racemic)  recombinant full-length human prolyl endopeptidase (PREP) (Homo sapiens, UniProt P48147)              pIC50    9.17
1  Cc1nc(-c2ccc(Cn3nc4n(c3=O)C(C(=O)N3CCCC3)CCC4)cc2)no1 (racemic)  recombinant full-length human prolyl endopeptidase (PREP) (Homo sapiens, UniProt P48147)              pIC50    7.62
2  O=C([C@@H]1CCCc2nn(Cc3ncc(F)cc3F)c(=O)n21)N1CCC(F)(F)C1  recombinant full-length human prolyl endopeptidase (PREP) (Homo sapiens, UniProt P48147)              pIC50    8.52

a = O=C(C1CC(C(F)(F)F)Cc2nn(Cc3ccc(C(F)(F)F)nc3)c(=O)n21)N1CC(F)C(F)C1 (racemic) [Example 582]
b = O=C([C@@H]1CCCc2nn(Cc3ccc(C(F)(F)F)nc3)c(=O)n21)N1CC(F)C1
c = O=C([C@@H]1CCCc2nn(CC3(c4ccc(F)cc4)CC3)c(=O)n21)N1CC(F)C1
d = O=C(C1CC(C(F)(F)F)Cc2nn(Cc3ncc(C(F)(F)F)cc3Cl)c(=O)n21)N1CC[C@H](F)C1 (single isomer, unassigned) [Example 563]
List these items ordered by pIC50, big to small. List the labels, following the order given in the request.
d, c, b, a

###

- Study Target: recombinant full-length human prolyl endopeptidase (PREP) (Homo sapiens, UniProt P48147)
- Construct: To recombinant full-length human prolyl endopeptidase (PREP, R&D-Systems, 4308-SE)
- Sequence (P48147 1-710): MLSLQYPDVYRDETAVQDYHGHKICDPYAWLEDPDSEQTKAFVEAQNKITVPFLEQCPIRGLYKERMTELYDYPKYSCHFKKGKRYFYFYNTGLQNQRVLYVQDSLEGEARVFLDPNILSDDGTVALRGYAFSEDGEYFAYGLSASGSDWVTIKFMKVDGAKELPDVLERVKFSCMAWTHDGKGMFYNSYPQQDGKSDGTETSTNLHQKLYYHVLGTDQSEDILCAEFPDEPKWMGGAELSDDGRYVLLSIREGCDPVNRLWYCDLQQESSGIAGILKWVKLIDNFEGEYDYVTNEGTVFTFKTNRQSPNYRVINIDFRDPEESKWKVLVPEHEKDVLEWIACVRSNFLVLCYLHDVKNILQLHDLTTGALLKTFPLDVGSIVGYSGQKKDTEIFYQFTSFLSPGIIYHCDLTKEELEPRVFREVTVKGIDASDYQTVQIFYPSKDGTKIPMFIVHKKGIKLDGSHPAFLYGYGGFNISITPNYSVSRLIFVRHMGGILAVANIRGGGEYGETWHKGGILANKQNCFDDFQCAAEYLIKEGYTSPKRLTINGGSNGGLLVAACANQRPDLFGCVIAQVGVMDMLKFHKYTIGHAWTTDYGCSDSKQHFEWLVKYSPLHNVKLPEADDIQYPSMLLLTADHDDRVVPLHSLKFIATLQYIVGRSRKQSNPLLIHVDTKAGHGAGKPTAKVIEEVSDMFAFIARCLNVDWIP
- Protocol Description: Biochemical human prolyl endopeptidase (PREP) assay with fluorescently labelled substrate
- Reported Conditions: substrate Z-Gly-Pro-AMC 50 μM, 32° C., 60 min; some as mean values from multiple independent determinations
Measured Quantity: IC50 (nM)

In [3]: df
Out[3]:
                                   molecule   u  number
0  O=C([C@@H]1CCCc2nn(Cc3ccc(F)c(Cl)c3)c(=O)n21)N1C[C@@H](F)[C@@H](F)C1  nM    0.27

I = O=C([C@@H]1CCCc2nn(Cc3ccnc(C(F)(F)F)c3F)c(=O)n21)N1CC(O)C1
II = Cc1ccc(Cn2nc3n(c2=O)C(C(=O)N2CCCC2)CCC3C)cc1 (racemic)
III = O=C([C@@H]1CCCc2nn(Cc3ccc(F)c(C(F)(F)F)c3)c(=O)n21)N1CC[C@H](F)C1
List these items ordered by IC50, big to small. List the labels, following the order given in the request.
I, III, II
(I: 27.5 nM, III: 0.615 nM, II: 0.415 nM)
